Some binders, each annotated with its measured pKd.
Target: cynomolgus monkey (cyno) TIGIT protein (cynomolgus monkey, UniProt A0A7N9I9V4 89-209)
Sequence (A0A7N9I9V4 entry or part of it): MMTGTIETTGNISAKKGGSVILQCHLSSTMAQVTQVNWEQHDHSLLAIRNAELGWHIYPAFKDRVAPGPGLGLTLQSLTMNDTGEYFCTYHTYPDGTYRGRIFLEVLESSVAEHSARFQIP
Assay: SPR, bivalent affinity
pKd: −log10 of the molar value.
ENDPOINT LABEL: pKd

{"BINDER": "rat6B2 (antibody, V domains shown, SD rat-derived; rat V domains as FR/HVR pieces; also called 1.6B2; Chimeric 1.6B2) VH: QVSLKESGPGILQPSHTLSLTCSFSGFSLSTYGMGVSWIRQPSEKGLEWLASIWWNGNTYYNPSLKSRLTVSKDASNDQAFLNVTSVDTTDTATYYCAHTGGAVITWFAYWGQGTLVTVSS VL: NIVMTQSPKSMSISVGDRVTMNCKASQSVGKNIAWYQQKPGQSPKLLIYYASNRYTGVPDRFTGGGSGTDFTLTINTVQAEDAAFFYCQHIYNSPYPFGTGTKLEIK", "COMPARISON SIGN": "=", "RESULT NUMBER": 10.04}
{"BINDER": "7.4A3 (antibody, V domains shown, OMT rat-derived human antibody; also called 7.4A3.Q1.C96) VH: QVQLVQSGSDLKKPGASVRVSCKASGYTFTSYPMNWVRQAPGHGLEWMGWINTNTGNPTYVQGFTGRFVFSLDTSVNTAYLQISSLKAEDTAVYFCARTGGHTYDSYAFDVWGQGTMVTVSS VL: DIQLTQSPTFLSASVGDRVTITCRASQVISSSLAWYQQNPGKAPKLLIYAASTLQSGVPSRFSGSGSGTEFTLTISSLQPEDFVTYYCQHLHGYPCNFGQGTKVEIK", "COMPARISON SIGN": "≥", "RESULT NUMBER": 10.30}
{"BINDER": "rat10A5 (antibody, V domains shown, SD rat-derived; rat V domains as FR/HVR pieces; also called 1.10A5; Chimeric 1.10A5) VH: QVSLKESGPGILQPSHTLSLTCSFSGFSLTTYGMGVSWIRQPSEKGLEWLASIWWNGNTYYNPSLRSRLTVSKDTSNDQAFLNVTSVDTTDTATYYCAHTGGAVITWFAYWGQGTLVTVSS VL: NIVMTQSPKSMSISIGDRVTMNCKASQSVGKNIAWYQQKTGQSPQLLIYYASNRYTGVPDRFTGGGSGTDFTLTINSVQAEDAAFFYCQHIYNSPYPFGTGTKLEIK", "COMPARISON SIGN": "=", "RESULT NUMBER": 10.89}
{"BINDER": "rat7E7 (antibody, V domains shown, SD rat-derived; rat V domains as FR/HVR pieces; also called 1.7E7; Chimeric 1.7E7) VH: EVQLQQSGPELQRPGASVKLSCKATGYTFTEYSIYWVKQRPKQSLEIIGRIDPKNGRTYYVDKFKNRATLTADTSSNTAYMQLSSLTSEDTATYFCTRIYGFYFDFWGQGVMVTASS VL: NIHLTQSPSLLSASVGDRVTLSCKGSQNVNKYLVWYQQKLGEAPKLLIYNTDNLQSGIPSRFSGSGSGTDYTLTISSLQPEDAATYFCYQYNNGFTFGSGTKLEIK", "COMPARISON SIGN": "≥", "RESULT NUMBER": 11.05}
{"BINDER": "rat15C8 (antibody, V domains shown, SD rat-derived; rat V domains as FR/HVR pieces; also called 1.15C8; Chimeric 1.15C8) VH: EVQLQQSGPELQRPGASVKLSCKASGYTFTEHSIYWLKQRPKQSLEIIGRIDPKNGRTYFVDKFKNRATLTTNTSSNTAYMQLSSLTSEDTAIYFCARIDGFYFDFWGQGVMVTASS VL: NIHLTQSPSLLSASVGDRVTLSCKGSQNVNKYLVWYQQKLGEAPKLLIYSTDNLQSGIPSRFSGSGSGTDYTLTISSLQPEDAATYFCYQYNNGFTFGSGTKLEIK", "COMPARISON SIGN": "≥", "RESULT NUMBER": 10.89}
{"BINDER": "4.1A4 (antibody, V domains shown, OMT rat-derived human antibody; also called 4.1A4.Q1.C96) VH: QVQLVQSGSELKKPGASVKVSCKASGYTLTNYPMNWVRQAPGRGLEWMGWINTNTGSPAYAQDFTERFVFSLDTSVTTAYLQISSLKAEDTAVYYCARTAITSVYHFDYWGQGTLVTVSS VL: DIQLTQSPSFLSASVGDRVTITCRASQGISSYLAWYQQKPGKAPRVLIYGATTLQSGVPSRFSGSESGTEFTLTISSLQPEDLATYYCQKLNSHPCSFGQGTKVEIK", "COMPARISON SIGN": "=", "RESULT NUMBER": 10.46}
